Measured values drawn from BigSolDB 2.1 for this set.

Conditions: in acetone, 313.15 K
readout-label: solubility (mole fraction)
Lab note: jot the number down without any unit.

Given the entry `CC1=C(/C=C/C(C)=C/C=C/C(C)=C/C=C/C=C(C)/C=C/C=C(C)/C=C/C2=C(C)C(=O)CCC2(C)C)C(C)(C)CCC1=O` , report its measured solubility (mole fraction).
4.22e-05

----------
Conditions: in methanol, 333.15 K
readout-label: solubility (mole fraction)
Lab note: jot the number down without any unit.

Given the entry `CC1=C(/C=C/C(C)=C/C=C/C(C)=C/C=C/C=C(C)/C=C/C=C(C)/C=C/C2=C(C)C(=O)CCC2(C)C)C(C)(C)CCC1=O` , report its measured solubility (mole fraction).
4.53e-06

----------
Settings: in methanol, 303.15 K
readout-label: solubility (mole fraction)
Lab note: jot the number down without any unit.

Given the entry `CC1=C(/C=C/C(C)=C/C=C/C(C)=C/C=C/C=C(C)/C=C/C=C(C)/C=C/C2=C(C)C(=O)CCC2(C)C)C(C)(C)CCC1=O` , report its measured solubility (mole fraction).
2.93e-06

----------
Conditions: in ethanol, 313.15 K
readout-label: solubility (mole fraction)

Given the entry `CC1=C(/C=C/C(C)=C/C=C/C(C)=C/C=C/C=C(C)/C=C/C=C(C)/C=C/C2=C(C)C(=O)CCC2(C)C)C(C)(C)CCC1=O` , report its measured solubility (mole fraction).
6.35e-06

----------
Details: in acetone, 303.15 K
readout-label: solubility (mole fraction)
Lab note: jot the number down without any unit.

Given the entry `CC1=C(/C=C/C(C)=C/C=C/C(C)=C/C=C/C=C(C)/C=C/C=C(C)/C=C/C2=C(C)C(=O)CCC2(C)C)C(C)(C)CCC1=O` , report its measured solubility (mole fraction).
3.1e-05

----------
Conditions: in cyclohexane, 323.15 K
readout-label: solubility (mole fraction)
Lab note: jot the number down without any unit.

Given the entry `CC1=C(/C=C/C(C)=C/C=C/C(C)=C/C=C/C=C(C)/C=C/C=C(C)/C=C/C2=C(C)C(=O)CCC2(C)C)C(C)(C)CCC1=O` , report its measured solubility (mole fraction).
1.48e-05

----------
Conditions: in ethanol, 303.15 K
readout-label: solubility (mole fraction)
Lab note: jot the number down without any unit.

Given the entry `CC1=C(/C=C/C(C)=C/C=C/C(C)=C/C=C/C=C(C)/C=C/C=C(C)/C=C/C2=C(C)C(=O)CCC2(C)C)C(C)(C)CCC1=O` , report its measured solubility (mole fraction).
5.6e-06

----------
Conditions: in acetone, 293.15 K
readout-label: solubility (mole fraction)

Given the entry `CC1=C(/C=C/C(C)=C/C=C/C(C)=C/C=C/C=C(C)/C=C/C=C(C)/C=C/C2=C(C)C(=O)CCC2(C)C)C(C)(C)CCC1=O` , report its measured solubility (mole fraction).
1.95e-05

----------
Conditions: in acetone, 318.15 K
readout-label: solubility (mole fraction)
Lab note: jot the number down without any unit.

Given the entry `CC1=C(/C=C/C(C)=C/C=C/C(C)=C/C=C/C=C(C)/C=C/C=C(C)/C=C/C2=C(C)C(=O)CCC2(C)C)C(C)(C)CCC1=O` , report its measured solubility (mole fraction).
4.94e-05

----------
Conditions: in methanol, 313.15 K
readout-label: solubility (mole fraction)
Lab note: jot the number down without any unit.

Given the entry `CC1=C(/C=C/C(C)=C/C=C/C(C)=C/C=C/C=C(C)/C=C/C=C(C)/C=C/C2=C(C)C(=O)CCC2(C)C)C(C)(C)CCC1=O` , report its measured solubility (mole fraction).
3.27e-06

----------
Settings: in cyclohexane, 293.15 K
readout-label: solubility (mole fraction)
Lab note: jot the number down without any unit.

Given the entry `CC1=C(/C=C/C(C)=C/C=C/C(C)=C/C=C/C=C(C)/C=C/C=C(C)/C=C/C2=C(C)C(=O)CCC2(C)C)C(C)(C)CCC1=O` , report its measured solubility (mole fraction).
1.27e-05

----------
Conditions: in toluene, 293.15 K
readout-label: solubility (mole fraction)
Lab note: jot the number down without any unit.

Given the entry `CC1=C(/C=C/C(C)=C/C=C/C(C)=C/C=C/C=C(C)/C=C/C=C(C)/C=C/C2=C(C)C(=O)CCC2(C)C)C(C)(C)CCC1=O` , report its measured solubility (mole fraction).
0.000118

----------
Conditions: in ethanol, 343.15 K
readout-label: solubility (mole fraction)
Lab note: jot the number down without any unit.

Given the entry `CC1=C(/C=C/C(C)=C/C=C/C(C)=C/C=C/C=C(C)/C=C/C=C(C)/C=C/C2=C(C)C(=O)CCC2(C)C)C(C)(C)CCC1=O` , report its measured solubility (mole fraction).
9.9e-06

----------
Conditions: in ethanol, 323.15 K
readout-label: solubility (mole fraction)
Lab note: jot the number down without any unit.

Given the entry `CC1=C(/C=C/C(C)=C/C=C/C(C)=C/C=C/C=C(C)/C=C/C=C(C)/C=C/C2=C(C)C(=O)CCC2(C)C)C(C)(C)CCC1=O` , report its measured solubility (mole fraction).
7.48e-06

----------
Settings: in cyclohexane, 313.15 K
readout-label: solubility (mole fraction)
Lab note: jot the number down without any unit.

Given the entry `CC1=C(/C=C/C(C)=C/C=C/C(C)=C/C=C/C=C(C)/C=C/C=C(C)/C=C/C2=C(C)C(=O)CCC2(C)C)C(C)(C)CCC1=O` , report its measured solubility (mole fraction).
1.38e-05

----------
Settings: in ethanol, 293.15 K
readout-label: solubility (mole fraction)
Lab note: jot the number down without any unit.

Given the entry `CC1=C(/C=C/C(C)=C/C=C/C(C)=C/C=C/C=C(C)/C=C/C=C(C)/C=C/C2=C(C)C(=O)CCC2(C)C)C(C)(C)CCC1=O` , report its measured solubility (mole fraction).
4.5e-06

----------
Conditions: in ethanol, 333.15 K
readout-label: solubility (mole fraction)
Lab note: jot the number down without any unit.

Given the entry `CC1=C(/C=C/C(C)=C/C=C/C(C)=C/C=C/C=C(C)/C=C/C=C(C)/C=C/C2=C(C)C(=O)CCC2(C)C)C(C)(C)CCC1=O` , report its measured solubility (mole fraction).
8.72e-06
